The measurements presented in this section are drawn from the RNAGym collection of RNA variant scans (doi:10.7554/elife.80360).

B1: HDV Ribozyme (parent)
chain: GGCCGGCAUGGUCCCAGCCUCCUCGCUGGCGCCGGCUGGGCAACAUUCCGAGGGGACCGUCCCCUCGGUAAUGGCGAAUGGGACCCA

Variants of: B1
Experiment: self-cleavage, relative activity (ratio to wild type); higher = more cleavage; co-transcriptional
assay-readout: self-cleavage
Numbers only.

Below, each entry is followed by its recorded self-cleavage result.
Request: Given the entry C14G G53A , report its measured self-cleavage.
Response: 0.86

Request: Given the entry U9C G31C , report its measured self-cleavage.
Response: 0.598

Request: Given the entry G39C A71U , report its measured self-cleavage.
Response: 0.229

Value sought for every listed variant: self-cleavage.
1. G17A G50C
2. U23C G38A
3. G2C A77G
4. G10C G31U
5. G68U U72G
6. G38C U65A
7. A70U G76U

Response:
1: 0.502; 2: 0.17; 3: 0.0346; 4: 0.219; 5: 0.359; 6: 0.341; 7: 1.07
